Source: ChEMBL document CHEMBL1955840

Recorded measurements of inhibition, one per entry
# protocol-description: Inhibition of trypsin-like activity of 20S proteasome at 10 uM
Report the figure in % without appending any unit label.

A selection of reference data follows.
>>> observed("CC(C)C[C@H](NC(=O)[C@H](CCCN/C(N)=N/[N+](=O)[O-])NC(=O)C(CCCCCCCCC#N)C1CCCC1)B1O[C@@H]2[C@@H]3C[C@H](C[C@]2(C)O1)C3(C)C (mixture of isomers)")
0
>>> observed("CC(C)C[C@H](NC(=O)[C@H](CCCN/C(N)=N/[N+](=O)[O-])NC(=O)C(CCCCCCCCC#N)C1CCCC1)B(O)O (mixture of isomers)")
5
>>> observed("CC(C)C[C@H](NC(=O)[C@H](CCCN/C(N)=N/[N+](=O)[O-])NC(=O)C(CCCCCCCCN1C(=O)c2ccccc2C1=O)C1CCCC1)B1O[C@@H]2[C@@H]3C[C@H](C[C@]2(C)O1)C3(C)C (mixture of isomers)")
20

Next molecule, please.
Record summary for CC(C)C[C@H](NC(=O)[C@H](CCCN/C(N)=N/[N+](=O)[O-])NC(=O)C(CCCCCCCCN1C(=O)c2ccccc2C1=O)C1CCCC1)B(O)O (mixture of isomers) : reported inhibition = 24

###

# target-desc: Chymotrypsinogen A (Bos taurus, UniProt P00766)
reported-metric: IC50

Example entries and their recorded answers appear below.
>>> observed("CC(C)C[C@H](NC(=O)[C@H](CCCNC(=N)N[N+](=O)[O-])NC(=O)C(CCCCCCCCC#N)C1CCCC1)B(O)O (mixture of isomers)")
"> 10 µM"
>>> observed("CC(C)C[C@H](NC(=O)[C@H](CCCN/C(N)=N/[N+](=O)[O-])NC(=O)C(CCCCCCCCN1C(=O)c2ccccc2C1=O)C1CCCC1)B1O[C@@H]2[C@@H]3C[C@H](C[C@]2(C)O1)C3(C)C (mixture of isomers)")
"> 10 µM"

Record for CC(C)C[C@H](NC(=O)[C@H](CCCN=C(N)N[N+](=O)[O-])NC(=O)C(CCCCCCCCC#N)C1CCCC1)B1O[C@@H]2[C@@H]3C[C@H](C[C@]2(C)O1)C3(C)C (mixture of isomers) under target or system Chymotrypsinogen A (Bos taurus, UniProt P00766): IC50 reported as > 10 µM

Noted IC50 for CC(C)C[C@H](NC(=O)[C@H](CCCN/C(N)=N/[N+](=O)[O-])NC(=O)C(CCCCCCCCN1C(=O)c2ccccc2C1=O)C1CCCC1)B(O)O (mixture of isomers) , tested on Chymotrypsinogen A (Bos taurus, UniProt P00766): > 10 µM

###

# target-desc: Chymotrypsinogen A (Bos taurus) (UniProt P00766)
# protocol-description: Inhibition of bovine alpha-chymotrypsin at 10 uM
Listed compounds paired with reported inhibition
Write the value in % as a bare number.

// worked examples, inhibition included
>>> observed("CC(C)C[C@H](NC(=O)[C@H](CCCN/C(N)=N/[N+](=O)[O-])NC(=O)C(CCCCCCCCN1C(=O)c2ccccc2C1=O)C1CCCC1)B(O)O (mixture of isomers)")
2
>>> observed("CC(C)C[C@H](NC(=O)[C@H](CCCN/C(N)=N/[N+](=O)[O-])NC(=O)C(CCCCCCCCC#N)C1CCCC1)B1O[C@@H]2[C@@H]3C[C@H](C[C@]2(C)O1)C3(C)C (mixture of isomers)")
24
>>> observed("CC(C)C[C@H](NC(=O)[C@H](CCCN/C(N)=N/[N+](=O)[O-])NC(=O)C(CCCCCCCCC#N)C1CCCC1)B(O)O (mixture of isomers)")
30

--- query ---
Form field inhibition for item CC(C)C[C@H](NC(=O)[C@H](CCCN/C(N)=N/[N+](=O)[O-])NC(=O)C(CCCCCCCCN1C(=O)c2ccccc2C1=O)C1CCCC1)B1O[C@@H]2[C@@H]3C[C@H](C[C@]2(C)O1)C3(C)C (mixture of isomers) on Chymotrypsinogen A (Bos taurus) (UniProt P00766): 30
